- RUN DESCRIPTION: Clearance in rat blood at 1 mg/kg, iv
- Type: ADME, organism-based
- Design: dose 1 mg/kg, route intravenous
ASSAY READOUT: clearance (mL/min/kg)

a = Cc1ccc2c(OCCN3CCC(Cc4cccc(C5CCN(C)CC5)c4)CC3)cccc2n1
b = Cc1ccc2c(OCCN3CCC(Cc4cccc(N5CCN(C)CC5)c4)CC3)cccc2n1
Q. For this pair, a and b , which shows a numerically higher clearance? // respond with label for picked entry
A. b
(b: 46 mL/min/kg, a: 14 mL/min/kg)

###

Let's go through some Ki measurements on UniProt:P28221 together.
ASSAY READOUT: Ki (nM)

STRUCTURE: Cc1ccc2c(OCCN3CCC(Cc4cccc(N5CCCC5)c4)CC3)cccc2n1
ASSAY READOUT: Ki
UNIT OF MEASUREMENT: nM
READOUT NUMBER: 2.51

1 = Cc1ccc2c(OCCN3CCC(Cc4cccc(N5CCCN(C)CC5)c4)CC3)cccc2n1
2 = Cc1ccc2c(OCCN3CCC(Cc4cccc(C5CCN(S(C)(=O)=O)CC5)c4)CC3)cccc2n1
3 = Cc1ccc2c(OCCN3CCC(Cc4cccc(-c5ccncc5)c4)CC3)cccc2n1
4 = Cc1ccc2c(OCCN3CCC(Cc4cccc(-c5cccnc5)c4)CC3)cccc2n1
Q. Ranking field: Ki; order: falling. Give the labels in the order requested.
A. 2, 4, 3, 1

a = CC(=O)N1CCC(c2cccc(CC3CCN(CCOc4cccc5nc(C)ccc45)CC3)c2)CC1
b = Cc1ccc2c(OCCN3CCC(Cc4cccc(N5CCN(C)CC5)c4)CC3)cccc2n1
c = Cc1ccc2c(OCCN3CCC(Cc4cccc(N5C[C@@H](C)N[C@@H](C)C5)c4)CC3)cccc2n1
Q. Arrange the 3 compounds from largest to smallest Ki. Rank them, then answer with their labels in that order.
A. a, c, b
(a: 3.98 nM, c: 0.794 nM, b: 0.501 nM)

P = Cc1ccc2c(OCCN3CCC(Cc4cccc(N5CCN(C)CC5=O)c4)CC3)cccc2n1
Q = Cc1ccc2c(OCCN3CCC(Cc4cccc(N5CCN[C@H](C)C5)c4)CC3)cccc2n1
Q. Name the one with the greater Ki value, either P or Q as given. Indicate which entry you chose by stating its label.
A. P
(P: 3.98 nM, Q: 0.631 nM)

###

- SYSTEM UNDER TEST: 5-hydroxytryptamine receptor 1D (Homo sapiens, UniProt P28221)
- Sequence (P28221 whole entry): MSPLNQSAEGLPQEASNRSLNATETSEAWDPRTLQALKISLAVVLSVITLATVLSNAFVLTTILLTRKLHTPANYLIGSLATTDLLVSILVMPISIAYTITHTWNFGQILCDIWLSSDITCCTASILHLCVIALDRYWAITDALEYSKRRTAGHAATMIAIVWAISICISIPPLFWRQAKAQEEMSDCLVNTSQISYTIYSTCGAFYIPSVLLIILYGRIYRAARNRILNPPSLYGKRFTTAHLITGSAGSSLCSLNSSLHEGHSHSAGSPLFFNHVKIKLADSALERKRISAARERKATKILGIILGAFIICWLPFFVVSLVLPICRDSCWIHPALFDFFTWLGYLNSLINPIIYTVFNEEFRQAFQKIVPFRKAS
- RUN DESCRIPTION: Intrinsic activity at human 5HT1D receptor expressed in CHO cells by [35S]GTPgammaS binding assay
- Format: functional, cell-based
ASSAY READOUT: Intrinsic activity

STRUCTURE: Cc1ccc2c(OCCN3CCC(Cc4cccc(N5CCOCC5)c4)CC3)cccc2n1
READOUT NUMBER: 0.6

STRUCTURE: Cc1ccc2c(OCCN3CCC(Cc4cccc(N5CCN[C@@H](C)C5)c4)CC3)cccc2n1
READOUT NUMBER: 0.5

STRUCTURE: Cc1ccc2c(OCCN3CCC(Cc4cccc(N5CCN(C)CC5)c4)CC3)cccc2n1
READOUT NUMBER: 0.4

STRUCTURE: Cc1ccc2c(OCCN3CCC(Cc4cccc(C5CCN(C)CC5)c4)CC3)cccc2n1
READOUT NUMBER: 0.4

STRUCTURE: Cc1ccc2c(OCCN3CCC(Cc4cccc(N5CCCN(C)CC5)c4)CC3)cccc2n1
READOUT NUMBER: 0.5

a = Cc1ccc2c(OCCN3CCC(Cc4cccc(N5CCCCC5)c4)CC3)cccc2n1
b = Cc1ccc2c(OCCN3CCC(Cc4cccc(NC(=O)CN(C)C)c4)CC3)cccc2n1
c = Cc1ccc2c(OCCN3CCC(Cc4cccc(NS(C)(=O)=O)c4)CC3)cccc2n1
Q. Order the 3 molecules from highest to lowest Intrinsic activity. Response format: the labels, sorted as the prompt asks.
A. a, b, c
